Every entry's value here was drawn from the Kinase Knowledgebase extract (Sharma et al. 2016).

- measurement target: EGFR (UniProt P00533)
- Sequence (P00533 whole entry, looked up): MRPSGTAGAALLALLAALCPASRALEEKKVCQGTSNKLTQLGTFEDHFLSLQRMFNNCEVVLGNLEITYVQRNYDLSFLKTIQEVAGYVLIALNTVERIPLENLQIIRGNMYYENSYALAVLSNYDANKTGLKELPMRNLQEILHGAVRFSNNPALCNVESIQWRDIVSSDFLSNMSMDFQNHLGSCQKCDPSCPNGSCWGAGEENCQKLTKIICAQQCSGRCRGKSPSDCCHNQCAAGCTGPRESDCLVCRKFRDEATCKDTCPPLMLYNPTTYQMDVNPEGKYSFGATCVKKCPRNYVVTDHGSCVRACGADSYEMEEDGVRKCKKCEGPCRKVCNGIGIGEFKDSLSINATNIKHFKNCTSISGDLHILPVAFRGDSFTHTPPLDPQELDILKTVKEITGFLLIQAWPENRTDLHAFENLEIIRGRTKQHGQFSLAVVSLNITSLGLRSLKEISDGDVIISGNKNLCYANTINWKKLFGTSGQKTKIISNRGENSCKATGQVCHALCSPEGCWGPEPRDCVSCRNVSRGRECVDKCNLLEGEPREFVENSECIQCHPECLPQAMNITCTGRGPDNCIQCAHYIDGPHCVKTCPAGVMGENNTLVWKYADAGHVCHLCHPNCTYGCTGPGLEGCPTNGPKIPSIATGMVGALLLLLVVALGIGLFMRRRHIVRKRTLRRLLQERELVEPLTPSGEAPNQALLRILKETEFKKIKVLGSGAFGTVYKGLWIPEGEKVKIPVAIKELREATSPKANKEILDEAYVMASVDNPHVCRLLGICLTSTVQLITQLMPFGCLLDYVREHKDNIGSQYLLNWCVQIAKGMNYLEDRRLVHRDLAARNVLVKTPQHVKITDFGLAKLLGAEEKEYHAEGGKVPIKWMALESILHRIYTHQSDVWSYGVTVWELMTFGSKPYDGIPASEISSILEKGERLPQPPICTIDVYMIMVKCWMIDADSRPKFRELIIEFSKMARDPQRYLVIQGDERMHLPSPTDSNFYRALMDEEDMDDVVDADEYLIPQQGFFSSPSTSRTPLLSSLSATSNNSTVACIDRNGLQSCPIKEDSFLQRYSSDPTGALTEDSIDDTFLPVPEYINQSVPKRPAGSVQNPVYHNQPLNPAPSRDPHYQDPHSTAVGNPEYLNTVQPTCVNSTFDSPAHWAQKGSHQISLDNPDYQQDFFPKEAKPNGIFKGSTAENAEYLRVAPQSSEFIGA
pIC50: −log10 of the molar value.
quantity: pIC50

- compound: "O=C(OCCC1[C@H]2C[C@@H]3C[C@@H](C[C@H]1C3)C2)c1cc(NCc2cc(O)ccc2O)ccc1O (stereo partly specified)"
  quantity: "pIC50"
  readout value: "< 5.30"
